Reported Inhibition values follow for various compounds
Tested on: Candida albicans
Details: Concentration 32 ug.mL-1; ASSAY_TEST Inhibition of Fungal Growth; detection method Absorption (OD530)
Description: Antifungal activity against Candida albicans ATCC 90028 (CO-ADD:FG_001); MIC in YNB media using NBS plates, by OD630
Potency and affinity values are given separately.
Answer format reminder: number followed by unit.

The following compounds have reported results that may help.
[
  {
    "compound": "CCCNC(=O)Cn1nc2nc(Nc3ccc(F)cc3)ccn2c1=O",
    "Inhibition": "-0.03%"
  },
  {
    "compound": "COC(=O)c1ccc(NC(=O)CSc2nnc3ccc(C(=O)Nc4cccc(F)c4)cn23)cc1",
    "Inhibition": "2.52%"
  },
  {
    "compound": "Cc1cc(C)cc(Oc2nccn3c(=O)n(CC(=O)Nc4ccc(Cl)cc4F)nc23)c1",
    "Inhibition": "0.59%"
  },
  {
    "compound": "CCCCn1c(=O)c2sccc2n2c(CCC(=O)NC(C)C34CC5CC(CC(C5)C3)C4)nnc12 (stereo not given)",
    "Inhibition": "-2.51%"
  },
  {
    "compound": "CCC(Sc1nnc2c(=O)n(-c3ccccc3)ccn12)C(=O)Nc1ccc(OC)cc1OC (stereo not given)",
    "Inhibition": "2.91%"
  }
]

// below: Inhibition requested for another compound
Ask: Report Inhibition for COc1ccc(NC(=O)Cn2nc3c4cc(-c5ccc(Cl)cc5)nn4ccn3c2=O)c(OC)c1
Result: 1.15%

====

Reported Inhibition values follow for various molecules
Tested on: Candida albicans
Details: Concentration 32 ug.mL-1; ASSAY_TEST Inhibition of Fungal Growth; detection method Absorption (OD530)
Entries with a potency or affinity are not part of this list.
Reply numerically in %, unit not repeated.

Ask: Please tell me the measured Inhibition for COc1cc(NC(=O)Cn2nc3ccc(SC(C)C)nn3c2=O)cc(OC)c1 ; system: Candida albicans.
Result: 10.99

Ask: Please tell me the measured Inhibition for Cc1ccc(Oc2nc3ccccc3n3c(=O)n(CC(=O)Nc4cccc(C(F)(F)F)c4)nc23)cc1 ; system: Candida albicans.
Result: 1.82

Ask: Please tell me the measured Inhibition for COc1ccc(-c2cc3c4nn(CC(=O)Nc5ccc(C)c(C)c5)c(=O)n4ccn3n2)cc1 ; system: Candida albicans.
Result: -0.09

====

System: Cryptococcus neoformans
Conditions: Concentration 32 ug.mL-1; ASSAY_TEST Inhibition of Fungal Growth; detection method Resazurin; Absorption (OD600-OD570); plate type 384well; NBS; CORNING #3640
Description: Antifungal activity against Cryptococcus neoformans H99 ATCC 208821 (CO-ADD:FG_002); MIC in YNB media using NBS plates, by Resazurin OD(600-570)
Entries with a potency or affinity are not part of this list.
Reported Inhibition values follow for various compounds
Reply numerically in %, unit not repeated.

[
  {
    "smilesEntry": "O=c1n(Cc2c(F)cccc2Cl)nc2ccc(-c3ccccc3)nn12",
    "Inhibition (%)": -10.32
  },
  {
    "smilesEntry": "COc1cccc(-n2ccn3c(SCC(=O)Nc4ccc(F)cc4F)nnc3c2=O)c1",
    "Inhibition (%)": -12.76
  },
  {
    "smilesEntry": "CC1CCN(C(=O)Cn2nc3n(Cc4ccco4)c(=O)c4sccc4n3c2=O)CC1",
    "Inhibition (%)": -13.38
  }
]

// below: Inhibition requested for another compound
Ask: Please tell me the measured Inhibition for COC(=O)c1ccccc1NC(=O)Cn1nc2c(Oc3ccccc3)nccn2c1=O ; system: Cryptococcus neoformans.
Result: -9.79

====

Test system: Candida albicans
Conditions: Concentration 32 ug.mL-1; ASSAY_TEST Inhibition of Fungal Growth; detection method Absorption (OD530)
Results with a measured potency or affinity are listed apart.
Reported Inhibition values follow for various compounds
Reply numerically in %, unit not repeated.

[
  {
    "smilesEntry": "Cc1nnc2c(S(=O)(=O)N(Cc3ccc(F)cc3)c3ccc(Cl)cc3)cccn12",
    "measuredProperty": "Inhibition",
    "endpointResult": 4.67
  },
  {
    "smilesEntry": "COc1cc(NC(=O)Cn2nc3ccc(-c4ccc(Cl)cc4)nn3c2=O)cc(OC)c1",
    "measuredProperty": "Inhibition",
    "endpointResult": 1.47
  },
  {
    "smilesEntry": "O=S(=O)(c1ccc2nncn2c1)N(Cc1ccccc1)c1ccc(F)c(F)c1",
    "measuredProperty": "Inhibition",
    "endpointResult": 3.55
  },
  {
    "smilesEntry": "CCc1ccccc1NC(=O)Cn1c(=O)c2nnc(C(C)C)n2c2ccccc21",
    "measuredProperty": "Inhibition",
    "endpointResult": 1.4
  },
  {
    "smilesEntry": "CC(=O)c1ccc(NC(=O)Cn2nc3c4cc(-c5ccc(Cl)cc5)nn4ccn3c2=O)cc1",
    "measuredProperty": "Inhibition",
    "endpointResult": 29.09
  },
  {
    "smilesEntry": "CCOc1ccc(N(Cc2ccccc2)S(=O)(=O)c2ccc3nncn3c2)cc1",
    "measuredProperty": "Inhibition",
    "endpointResult": 2.75
  }
]

Ask: Report Inhibition for COc1ccc(OC)c(NC(=O)Cn2nc3c4c5c(sc4ncn3c2=O)CCCC5)c1
Result: 0.7

Values were extracted from ChEMBL document CHEMBL4513146.
